- tested-on: T1, Cyno CD33 ECD-HSA (cynomolgus monkey)
- T1 construct: Cyno CD33 extracellular domain fused to monomeric human serum albumin and a six-histidine tag; also called C33W1
- test: SPRi off-rate screen (IBIS MX96), mAb captured by anti-human Fc; column head prints Cyno CD33 binding KD
readout-kind: koff
Form field: result (number plus unit)

Record excerpt, results attached:
binder	koff
C33B122 (antibody, IgG1, V domains shown, huIgG1 F405L; also called C33F127; C33H92/C33L30) VH: QLQLQESGPGLVKPSETLSLTCTVSGGSIRSSSYYWGWIRQPPGKGPEWIGSIYSSGNTYYNPSLKSRVTISVDTSKNQFSLKLISMTAADTAVFYCARLAATIVVPAARYFDCWGQGTLVTVSS VL: SYELTQPPSVSVSPGQTVSISCSGDRLGDKYACWYQQKPGQSPVLVIYQDSKRPSGIPERFSGSNSGNTATLTISGTQAMDEADYYCQAWDSSSYVFGTGTKVTVL	0.00145 s⁻¹
C33B66 (antibody, IgG1, V domains shown, huIgG1 F405L; also called C33F71; C33H55/C33L42) VH: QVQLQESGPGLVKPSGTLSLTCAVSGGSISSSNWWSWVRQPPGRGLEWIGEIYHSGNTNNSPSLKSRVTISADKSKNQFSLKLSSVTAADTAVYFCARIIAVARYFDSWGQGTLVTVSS VL: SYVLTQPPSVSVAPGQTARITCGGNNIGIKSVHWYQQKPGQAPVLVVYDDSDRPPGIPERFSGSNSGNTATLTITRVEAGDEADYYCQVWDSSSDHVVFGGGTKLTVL	9.33e-05 s⁻¹

// below: koff requested for another binder
In: Could you tell me which koff is on file for C33B89 (antibody, IgG1, V domains shown, huIgG1 F405L; also called C33F94; C33H90/C33L51) VH: QVQLQQSGPGLVKPSQTLSLTCAISGDSVSSNSAAWNWIRQSPSRGLEWLGRTYYRSKWYNDYALSVQSRITINPDTSKNQFSLQLNSVTPEDTAVYYCAREVAVAASFDYWGQGTLVTVSS VL: SYVLTQPPSVSVAPGQTARITCGGNNIGSKSVHWSQQKPGQAPVLVVYDDSDRPSGIPERFSGSNSGNTATLTISRVEAGDEADYYCQVWDSNSDHVVFGGGTKLTVL ?
Out: 4.65e-05 s⁻¹

Values compiled from patent US20230322924A1.
